This collection of values is drawn from paper PMC10568461.

Experiment: Brain concentrations of harmine, DMT and metabolites by UHPLC-MS after s.c. harmine and/or DMT
Conditions: rat, cerebellum, subcutaneous, Brain concentration, Experiment 2, cerebellum, after harmine + DMT (3 mg/kg each)
measurement.type: concentration at 65 min (µM)

INSERT INTO assay_data (line_notation, measurement_type, endpoint_unit, endpoint_value) VALUES
  ('CN(C)CCc1c[nH]c2ccccc12', 'concentration at 65 min', 'µM', 7.8),
  ('O=C(O)Cc1c[nH]c2ccccc12', 'concentration at 65 min', 'µM', 3);

====

Experiment: Brain concentrations of harmine, DMT and metabolites by UHPLC-MS after s.c. harmine and/or DMT
Conditions: rat, cerebellum, subcutaneous, Molar concentration, Exp 1, group Har + DMT, cerebellum
measurement.type: concentration at 95 min

INSERT INTO assay_data (line_notation, endpoint_value) VALUES
  ('CNCCc1c[nH]c2ccccc12', '1.38 nM'),
  ('CN(C)CCc1c[nH]c2ccccc12', '558 nM'),
  ('O=C(O)Cc1c[nH]c2ccccc12', '1110 nM');

====

Test: Brain concentrations of harmine, DMT and metabolites by UHPLC-MS after s.c. harmine and/or DMT
Settings: rat, cerebellum, subcutaneous, 1 mg/kg, Brain concentration, Experiment 1, cerebellum, group DMT (1 mg/kg s.c.), 95 min, mean (SD)
Below, each of the compounds is paired with its reported concentration at 95 min value.
measurement.type: concentration at 95 min

INSERT INTO measurements (compound, measurement_type, endpoint_value) VALUES
  ('COc1ccc2c(c1)[nH]c1c(C)nccc12 [harmine]', 'concentration at 95 min', '13.6 ng/g'),
  ('CN(C)CCc1c[nH]c2ccccc12 [DMT, N,N-dimethyltryptamine]', 'concentration at 95 min', '8.7 ng/g'),
  ('O=C(O)Cc1c[nH]c2ccccc12 [3-IAA, indole-3-acetic acid]', 'concentration at 95 min', '398 ng/g');

====

Assay: Brain concentrations of harmine, DMT and metabolites by UHPLC-MS after s.c. harmine and/or DMT
Details: rat, cerebellum, subcutaneous, Molar concentration, Exp 2, group Har + DMT, cerebellum
measurement.type: concentration at 65 min

INSERT INTO assay_data (line_notation, endpoint_value) VALUES
  ('CNCCc1c[nH]c2ccccc12', '0.0207 µM'),
  ('CN(C)CCc1c[nH]c2ccccc12', '7.82 µM'),
  ('O=C(O)Cc1c[nH]c2ccccc12', '3.03 µM');

====

Assay: Brain concentrations of harmine, DMT and metabolites by UHPLC-MS after s.c. harmine and/or DMT
Settings: rat, brain (average of frontal cortex and cerebellum), subcutaneous, Molar concentration, Exp 1, group Har + DMT, average of regions
Below, each of the compounds is paired with its reported concentration at 95 min value.
measurement.type: concentration at 95 min (nM)

INSERT INTO measurements (line_notation, endpoint_value) VALUES
  ('CN(C)CCc1c[nH]c2ccccc12', 676),
  ('CNCCc1c[nH]c2ccccc12', 1.14),
  ('O=C(O)Cc1c[nH]c2ccccc12', 1290);

====

Assay: Brain concentrations of harmine, DMT and metabolites by UHPLC-MS after s.c. harmine and/or DMT
Details: rat, brain, subcutaneous, 3 mg/kg, Brain harmine concentration, at 70 min after the higher dose (3 mg/kg)
measurement.type: concentration at 70 min

INSERT INTO results (line_notation, endpoint_value) VALUES
  ('COc1ccc2c(c1)[nH]c1c(C)nccc12', '~2000 nM');

====

Assay: Brain concentrations of harmine, DMT and metabolites by UHPLC-MS after s.c. harmine and/or DMT
Settings: Exp 2, group Har + DMT, average of regions
measurement.type: Percentage of total molar concentration of DMT and metabolites

INSERT INTO results (compound, endpoint_value) VALUES
  ('CNCCc1c[nH]c2ccccc12', '0.1%'),
  ('CN(C)CCc1c[nH]c2ccccc12', '73.3%'),
  ('C[N+](C)([O-])CCc1c[nH]c2ccccc12 [DMT-N-Oxide, DMT-N-oxide]', '0.7%'),
  ('O=C(O)Cc1c[nH]c2ccccc12', '25.9%');

====

Below, each of the compounds is paired with its reported concentration at 65 min value.
Test: Brain concentrations of harmine, DMT and metabolites by UHPLC-MS after s.c. harmine and/or DMT
Settings: rat, cerebellum, subcutaneous, Brain concentration, Experiment 2, cerebellum, group Har + DMT (3 mg/kg each s.c.), 65 min, mean (SD)
measurement.type: concentration at 65 min (ng/g)

INSERT INTO measurements (line_notation, endpoint_value) VALUES
  ('CN(C)CCc1c[nH]c2ccccc12', 1470),
  ('COc1ccc2c(c1)[nH]c1c(C)nccc12', 412),
  ('O=C(O)Cc1c[nH]c2ccccc12', 531);

====

Below, each of the compounds is paired with its reported Percentage of total molar concentration of DMT and metabolites value.
Assay: Brain concentrations of harmine, DMT and metabolites by UHPLC-MS after s.c. harmine and/or DMT
Conditions: Exp 2, group Har + DMT, cerebellum
measurement.type: Percentage of total molar concentration of DMT and metabolites (%)

INSERT INTO results (compound, endpoint_value) VALUES
  ('CN(C)CCc1c[nH]c2ccccc12', 71.1),
  ('C[N+](C)([O-])CCc1c[nH]c2ccccc12 [DMT-N-Oxide, DMT-N-oxide]', 1.2),
  ('CNCCc1c[nH]c2ccccc12', 0.2),
  ('O=C(O)Cc1c[nH]c2ccccc12', 27.5);

====

Assay: Brain concentrations of harmine, DMT and metabolites by UHPLC-MS after s.c. harmine and/or DMT
Conditions: Exp 1, group Har + DMT, cerebellum
measurement.type: Percentage of total molar concentration of DMT and metabolites (%)

INSERT INTO measurements (compound, endpoint_value) VALUES
  ('O=C(O)Cc1c[nH]c2ccccc12 [3-IAA, indole-3-acetic acid]', 65.3),
  ('CNCCc1c[nH]c2ccccc12 [NMT, N-methyltryptamine]', 0.1),
  ('C[N+](C)([O-])CCc1c[nH]c2ccccc12 [DMT-N-Oxide, DMT-N-oxide]', 1.8),
  ('CN(C)CCc1c[nH]c2ccccc12 [DMT, N,N-dimethyltryptamine]', 32.9);

====

Experiment: Brain concentrations of harmine, DMT and metabolites by UHPLC-MS after s.c. harmine and/or DMT
Settings: rat, frontal cortex, subcutaneous, Brain concentration, Experiment 1, frontal cortex, after harmine + DMT (1 mg/kg each), 95 min
measurement.type: concentration at 95 min (nM)

INSERT INTO measurements (compound, endpoint_value) VALUES
  ('O=C(O)Cc1c[nH]c2ccccc12 [3-IAA, indole-3-acetic acid]', 1500),
  ('CN(C)CCc1c[nH]c2ccccc12 [DMT, N,N-dimethyltryptamine]', 800);

====

Below, each of the compounds is paired with its reported Percentage of total molar concentration of DMT and metabolites value.
Assay: Brain concentrations of harmine, DMT and metabolites by UHPLC-MS after s.c. harmine and/or DMT
Conditions: Exp 1, group DMT, cerebellum
measurement.type: Percentage of total molar concentration of DMT and metabolites (%)

INSERT INTO results (compound, endpoint_unit, endpoint_value) VALUES
  ('C[N+](C)([O-])CCc1c[nH]c2ccccc12 [DMT-N-Oxide, DMT-N-oxide]', '%', 0.1),
  ('CNCCc1c[nH]c2ccccc12', '%', 0.0),
  ('O=C(O)Cc1c[nH]c2ccccc12', '%', 97.9),
  ('CN(C)CCc1c[nH]c2ccccc12', '%', 2.0);

====

Below, each of the compounds is paired with its reported concentration at 95 min value.
Experiment: Brain concentrations of harmine, DMT and metabolites by UHPLC-MS after s.c. harmine and/or DMT
Settings: rat, frontal cortex, subcutaneous, Brain concentration, Experiment 1, frontal cortex, group Har + DMT (1 mg/kg each s.c.), 95 min, mean (SD)
measurement.type: concentration at 95 min

INSERT INTO assay_data (compound, endpoint_value) VALUES
  ('O=C(O)Cc1c[nH]c2ccccc12 [3-IAA, indole-3-acetic acid]', '258 ng/g'),
  ('COc1ccc2c(c1)[nH]c1c(C)nccc12 [harmine]', '326 ng/g'),
  ('CN(C)CCc1c[nH]c2ccccc12 [DMT, N,N-dimethyltryptamine]', '150 ng/g');

====

Below, each of the compounds is paired with its reported concentration at 95 min value.
Test: Brain concentrations of harmine, DMT and metabolites by UHPLC-MS after s.c. harmine and/or DMT
Details: rat, cerebellum, subcutaneous, Brain concentration, Experiment 1, cerebellum, group Har + DMT (1 mg/kg each s.c.), 95 min, mean (SD)
measurement.type: concentration at 95 min

INSERT INTO measurements (line_notation, measurement_type, endpoint_value) VALUES
  ('COc1ccc2c(c1)[nH]c1c(C)nccc12', 'concentration at 95 min', '189 ng/g'),
  ('O=C(O)Cc1c[nH]c2ccccc12', 'concentration at 95 min', '194 ng/g'),
  ('CN(C)CCc1c[nH]c2ccccc12', 'concentration at 95 min', '105 ng/g');
